Please go through the items and note down their viability at 5 µM.
EXPERIMENTAL PROTOCOL: Synergy of Shiva-1 and lysozyme, percent viability
Type: cell-based, Pseudomonas aeruginosa
TEST CONDITIONS: Pseudomonas aeruginosa
No end group written: not given here.
One number for each entry, in %.

- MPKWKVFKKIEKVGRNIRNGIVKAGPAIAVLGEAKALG-NH2 (C-terminus assumed) [SB-37]: 38.5

Prompt: Find the measured viability at 5 µM of MPRWRLFRRIDRVGKQIKQGILRAGPAIALVGDARAVG [Shiva-1] and report it.
Response: 1.5

---

Tested on: S. pneumoniae C719
EXPERIMENTAL PROTOCOL: Antimicrobial assays II, NCCLS broth microdilution MIC
Assay type: cell-based, Streptococcus pneumoniae
TEST CONDITIONS: mean of three, in µg/mL
No end group written: not given here.
Assign class 1 to entries whose S. pneumoniae MIC meets or exceeds 20; assign class 0 to the rest.

Observe how each entry below is paired with its result.
• FAKLLAKALKKLL-NH2 [P55] = class 0
• FAKLLAKLAKKL-NH2 [P49] = class 1
• FAKLLAKLAKKAL-NH2 [P54, FAKLLAKLAKKAL-NH2] = class 1
• VAKKLAKLAKKLAKLAL-NH2 [P50] = class 0
• FAKLLAKLAKKVL-NH2 [P124] = class 1

Consider the additional substance presented here.
Prompt: Answer whether S. pneumoniae MIC of VALALKALKKLLKKLKKLAKKAL-NH2 [P510] is greater than or equal to 20.
Response: class 0
